Cited source for all entries: patent US20220411449A1

Tested on: E. coli
Experiment: Minimum Inhibitory Concentration (MIC) determination, 96-well plates, OD600
Conditions: 24 hours at 37° C.; compounds tested at 0-40 μg/mL in duplicate; Kanamycin 0-4 μg/mL
Recorded MIC, E. coli, one value per entry.

molecule	measured.target	MIC, E. coli
Cc1cc[c]([Bi]([O]S(=O)(=O)c2ccc(C)cc2)[O]S(=O)(=O)c2ccc(C)cc2)cc1 [Compound 21]	E. coli	40 µg/mL
Cc1ccc(S(=O)(=O)[O][Bi]([c]2ccccc2)[c]2ccccc2)cc1 [Compound 14]	E. coli	10 µg/mL
Cc1cc(C)[c]([Bi]([c]2ccccc2)[c]2ccccc2)c(C)c1 [Compound 5]	E. coli	40 µg/mL
Cc1ccc(S(=O)(=O)[O][Bi]([O]S(=O)(=O)c2ccc(C)cc2)[c]2ccccc2)cc1 [Compound 16]	E. coli	20 µg/mL
[I][Bi]([c]1ccccc1)[c]1ccccc1 [Compound 18]	E. coli	10 µg/mL

----------
Tested on: Vesicular Stomatitis Virus (Indiana strain)
Format: cell-based
readout.name: % Plaque Reduction

given.smiles	measured.target	experimental.value
[I][Bi]([c]1ccccc1)[c]1ccccc1	Vesicular Stomatitis Virus (Indiana strain)	99.95%
Cc1ccc(S(=O)(=O)[O][Bi]([c]2ccccc2)[c]2ccccc2)cc1	Vesicular Stomatitis Virus (Indiana strain)	29.7%
Cc1cc[c]([Bi]([O]S(=O)(=O)c2ccc(C)cc2)[O]S(=O)(=O)c2ccc(C)cc2)cc1	Vesicular Stomatitis Virus (Indiana strain)	38.7%
Cc1cc[c]([Bi]([O]S(=O)(=O)c2ccc(C)cc2)[c]2ccc(C)cc2)cc1	Vesicular Stomatitis Virus (Indiana strain)	76.6%
Cc1ccc(S(=O)(=O)[O][Bi]([O]S(=O)(=O)c2ccc(C)cc2)[c]2ccccc2)cc1	Vesicular Stomatitis Virus (Indiana strain)	81.8%

----------
System: Staphylococcus aureus
Test: Disk diffusion zone of inhibition
Conditions: disks with 1-5 μg compound/disk; positive control 5 μg Novobiocin; 22 hours at 37° C., LB agar
Recorded Zone of Inhibition, S. aureus, one value per entry.

molecule	Zone of Inhibition, S. aureus [cm]
Cc1cc[c]([Bi]([O]S(=O)(=O)c2ccc(C)cc2)[c]2ccc(C)cc2)cc1 [Compound 19]	1.8
Cc1ccc(S(=O)(=O)[O][Bi]([c]2ccccc2)[c]2ccccc2)cc1 [Compound 14]	2.1
Cc1cc[c]([Bi]([O]S(=O)(=O)c2ccc(C)cc2)[O]S(=O)(=O)c2ccc(C)cc2)cc1 [Compound 21]	1.5

----------
Recorded Zone of Inhibition, S. aureus, one value per entry.
System: Staphylococcus aureus
Experiment: Disk diffusion zone of inhibition
Conditions: disks with 1-5 μg compound/disk; positive control 5 μg Novobiocin; 22 hours at 37° C., LB agar

compound	unit.spec	Zone of Inhibition, S. aureus
COc1cc[c]([Bi]([c]2ccc(C)cc2)[c]2ccc(OC)cc2)cc1 [Compound 12]	cm	1
Cc1ccc(S(=O)(=O)[O][Bi]([O]S(=O)(=O)c2ccc(C)cc2)[c]2ccccc2)cc1 [Compound 16]	cm	1.8
[I][Bi]([c]1ccccc1)[c]1ccccc1 [Compound 18]	cm	2.2
N#Cc1cc[c]([Bi]([c]2ccccc2)[c]2ccccc2)cc1 [Compound 6]	cm	0
COc1cc[c]([Bi]([c]2ccccc2)[c]2ccccc2)cc1 [Compound 3]	cm	1
Cc1cc(C)[c]([Bi]([c]2ccccc2)[c]2c(C)cc(C)cc2C)c(C)c1 [Compound 8]	cm	1
COc1cc[c]([Bi]([c]2c(C)cc(C)cc2C)[c]2c(C)cc(C)cc2C)cc1 [Compound 2]	cm	1
Cc1cc(C)[c]([Bi]([c]2ccccc2)[c]2ccccc2)c(C)c1 [Compound 5]	cm	1.6
COC(=O)c1cc[c]([Bi]([c]2ccccc2)[c]2ccccc2)cc1 [Compound 4]	cm	0
COc1cc[c]([Bi]([c]2ccccc2)[c]2ccc(OC)cc2)cc1 [Compound 7]	cm	1.1
COc1cc[c]([Bi]([c]2ccc(C#N)cc2)[c]2ccc(C#N)cc2)cc1 [Compound 9]	cm	1
Cc1cc(C)[c]([Bi]([c]2ccc(C#N)cc2)[c]2c(C)cc(C)cc2C)c(C)c1 [Compound 13]	cm	0.9
COC(OC)c1cc[c]([Bi]([c]2ccccc2)[c]2ccccc2)cc1 [Compound 1]	cm	0
Cc1cc[c]([Bi]([c]2c(C)cc(C)cc2C)[c]2c(C)cc(C)cc2C)cc1 [Compound 11]	cm	0.8
Cc1cc[c]([Bi]([c]2ccc(C#N)cc2)[c]2ccc(C#N)cc2)cc1 [Compound 10]	cm	0.9
